tested on: HAB1; test: Yeast two hybrid of pBD-PYR1 site saturation mutants with pACT-HAB1 on 10 μM ABA, β-galactosidase staining; format: cell-based, Arabidopsis; design: key: x: Mutations in PYR1 that disrupt ABA-induced binding to PYR1 to HAB1; settings: S. cerevisiae Y190, 10 μM ABA; dead = lack of visible staining in comparison to wild type control
readout: Mutations in PYR1 that disrupt ABA-induced binding to PYR1 to HAB1

molecule | value.reported
K63P: PYR1 mutant (protein, UniProt O49686 1-191, looked up, variant K63P) Abscisic acid receptor PYR1: MPSELTPEERSELKNSIAEFHTYQLDPGSCSSLHAQRIHAPPELVWSIVRRFDKPQTYKHFIPSCSVEQNFEMRVGCTRDVIVISGLPANTSTERLDILDDERRVTGFSIIGGEHRLTNYKSVTTVHRFEKENRIWTVVLESYVVDMPEGNSEDDTRMFADTVVKLNLQKLATVAEAMARNSGDGSGSQVT | x
I62E: PYR1 mutant (protein, UniProt O49686 1-191, looked up, variant I62E) Abscisic acid receptor PYR1: MPSELTPEERSELKNSIAEFHTYQLDPGSCSSLHAQRIHAPPELVWSIVRRFDKPQTYKHFEKSCSVEQNFEMRVGCTRDVIVISGLPANTSTERLDILDDERRVTGFSIIGGEHRLTNYKSVTTVHRFEKENRIWTVVLESYVVDMPEGNSEDDTRMFADTVVKLNLQKLATVAEAMARNSGDGSGSQVT | x
